These measurements were taken from ChEMBL document CHEMBL4043303.

Target: UniProt P32245
Sequence (P32245 whole entry): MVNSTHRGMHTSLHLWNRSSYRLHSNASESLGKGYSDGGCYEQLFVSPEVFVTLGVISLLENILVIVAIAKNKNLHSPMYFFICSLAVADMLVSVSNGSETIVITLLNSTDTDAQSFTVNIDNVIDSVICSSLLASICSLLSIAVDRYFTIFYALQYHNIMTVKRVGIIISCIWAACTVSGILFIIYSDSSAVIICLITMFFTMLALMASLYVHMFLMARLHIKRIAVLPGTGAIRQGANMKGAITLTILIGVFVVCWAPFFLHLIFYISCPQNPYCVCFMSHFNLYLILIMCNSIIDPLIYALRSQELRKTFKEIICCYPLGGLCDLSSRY
Assay: Agonist activity at human MC4R expressed in high doxycyclin-treated HEK293 cell membranes assessed as increase in cAMP production after 15 mins by HTRF method
Assay type: functional, cell-based
Please provide measured Activity for the entries that follow.

[
  {
    "chem smiles": "CC[C@H](C)[C@@H]1NC(=O)[C@@H]2CCCN2C(=O)[C@@H]2CCCN2C(=O)[C@H]([C@@H](C)CC)NC(=O)[C@H](CO)NC(=O)[C@H](C)NC(=O)[C@H]([C@H](C)O)NC(=O)[C@@H]2CSSC[C@H](NC1=O)C(=O)N(C)[C@@H](Cc1cnc[nH]1)C(=O)N[C@H](Cc1ccccc1)C(=O)N(C)[C@@H](CCCNC(=N)N)C(=O)N(C)[C@@H](Cc1c[nH]c3ccccc13)C(=O)N[C@@H](CCCNC(=N)N)C(=O)N2",
    "result": "100%"
  }
]

// below: Activity requested for another compound
**Q:** Would you kindly share the measured Activity for CC[C@H](C)[C@@H]1NC(=O)[C@@H]2CCCN2C(=O)[C@H](Cc2c[nH]c3ccccc23)N(C)C(=O)[C@H](CCCNC(=N)N)NC(=O)[C@@H](Cc2ccccc2)NC(=O)[C@H](Cc2cnc[nH]2)N(C)C(=O)[C@H]([C@@H](C)O)NC(=O)[C@@H]2CSSC[C@H](NC1=O)C(=O)N[C@@H](Cc1ccccc1)C(=O)N1CCC[C@H]1C(=O)N[C@@H](CC(=O)O)C(=O)NCC(=O)N[C@@H](CCCNC(=N)N)C(=O)N2 ?
**A:** 100%
